# TARGET DESC: RNR (RNR1:RNR2 1:1) (Homo sapiens)
# Sequence (P23921 1-792): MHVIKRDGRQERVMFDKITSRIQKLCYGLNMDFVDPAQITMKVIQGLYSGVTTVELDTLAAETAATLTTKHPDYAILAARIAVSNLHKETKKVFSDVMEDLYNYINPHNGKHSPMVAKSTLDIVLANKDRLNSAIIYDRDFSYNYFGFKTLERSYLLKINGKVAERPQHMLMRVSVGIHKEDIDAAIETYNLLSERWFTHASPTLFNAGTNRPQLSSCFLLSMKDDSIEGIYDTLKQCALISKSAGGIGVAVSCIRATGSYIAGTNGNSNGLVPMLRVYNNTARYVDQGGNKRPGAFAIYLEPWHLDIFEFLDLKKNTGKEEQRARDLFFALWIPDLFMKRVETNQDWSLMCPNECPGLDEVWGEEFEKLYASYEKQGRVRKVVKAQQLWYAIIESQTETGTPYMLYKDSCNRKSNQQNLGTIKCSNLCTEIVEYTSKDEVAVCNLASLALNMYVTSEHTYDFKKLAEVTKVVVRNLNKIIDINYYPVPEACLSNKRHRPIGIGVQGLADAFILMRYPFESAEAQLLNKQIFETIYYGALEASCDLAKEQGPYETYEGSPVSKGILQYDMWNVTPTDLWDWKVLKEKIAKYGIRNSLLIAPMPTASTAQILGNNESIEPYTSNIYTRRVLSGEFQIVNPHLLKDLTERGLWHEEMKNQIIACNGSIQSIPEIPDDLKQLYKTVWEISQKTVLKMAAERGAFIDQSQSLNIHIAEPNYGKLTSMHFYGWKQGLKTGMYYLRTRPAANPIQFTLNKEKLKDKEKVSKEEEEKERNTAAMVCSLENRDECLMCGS
pIC50: −log10 of the molar value.
Provide the reported pIC50 of each item.

>  <COMPOUND>
Cc1ccc(F)c([C@H](C)[C@H](NS(=O)(=O)N2CC3C(C2)C3(C)C)c2n[nH]c(=O)o2)c1C (stereo partly shown)

>  <TARGET DESC>
RNR (RNR1:RNR2 1:1) (Homo sapiens)

>  <ENDPOINT VALUE>
5.00 to 6.00

$$$$
>  <COMPOUND>
Cc1ccc(F)c([C@@H](C)[C@H](NS(=O)(=O)N2CCC(Oc3ccccc3)CC2)c2n[nH]c(=O)o2)c1C

>  <TARGET DESC>
RNR (RNR1:RNR2 1:1) (Homo sapiens)

>  <ENDPOINT VALUE>
6.00 to 7.00

$$$$
>  <COMPOUND>
CCN(CC1CC1)S(=O)(=O)N[C@H](c1n[nH]c(=O)o1)[C@H](C)c1c(F)ccc(C)c1C

>  <TARGET DESC>
RNR (RNR1:RNR2 1:1) (Homo sapiens)

>  <ENDPOINT VALUE>
5.00 to 6.00

$$$$
>  <COMPOUND>
CNC(=O)C1CCN(S(=O)(=O)N[C@H](c2n[nH]c(=O)o2)[C@@H](C)c2c(F)ccc(C)c2C)CC1

>  <TARGET DESC>
RNR (RNR1:RNR2 1:1) (Homo sapiens)

>  <ENDPOINT VALUE>
4.00 to 5.00

$$$$
>  <COMPOUND>
Cc1ccc(F)c(C(C)[C@H](NS(=O)(=O)N2CCCCC2)c2n[nH]c(=O)o2)c1C (stereo partly shown)

>  <TARGET DESC>
RNR (RNR1:RNR2 1:1) (Homo sapiens)

>  <ENDPOINT VALUE>
6.00 to 7.00

$$$$
>  <COMPOUND>
Cc1ccc(F)c([C@@H](C)[C@H](NS(=O)(=O)N2CCC3(CC2)CC(=O)N(C)C3)c2n[nH]c(=O)o2)c1C

>  <TARGET DESC>
RNR (RNR1:RNR2 1:1) (Homo sapiens)

>  <ENDPOINT VALUE>
6.00 to 7.00

$$$$
>  <COMPOUND>
Cc1ccc(F)c([C@@H](C)[C@H](NS(=O)(=O)N2CCC(Oc3ccccn3)CC2)c2n[nH]c(=O)o2)c1C

>  <TARGET DESC>
RNR (RNR1:RNR2 1:1) (Homo sapiens)

>  <ENDPOINT VALUE>
6.00 to 7.00

$$$$
>  <COMPOUND>
Cc1ccc(F)c([C@@H](C)[C@H](NS(=O)(=O)N2CCC(C(C)(C)C)CC2)c2n[nH]c(=O)o2)c1C

>  <TARGET DESC>
RNR (RNR1:RNR2 1:1) (Homo sapiens)

>  <ENDPOINT VALUE>
6.00 to 7.00

$$$$
>  <COMPOUND>
Cc1ccc(F)c([C@H](C)[C@H](NS(=O)(=O)N2CC3CCCC(C3)C2)c2n[nH]c(=O)o2)c1C

>  <TARGET DESC>
RNR (RNR1:RNR2 1:1) (Homo sapiens)

>  <ENDPOINT VALUE>
4.00 to 5.00

$$$$

We now examine a further compound.
Data request: Entry Cc1ccc(F)c([C@H](C)[C@H](NS(=O)(=O)N2CCC3(CC2)OCCCO3)c2n[nH]c(=O)o2)c1C : reported pIC50 = ?
Data returned: 5.00 to 6.00

====

Protein target, amino acids: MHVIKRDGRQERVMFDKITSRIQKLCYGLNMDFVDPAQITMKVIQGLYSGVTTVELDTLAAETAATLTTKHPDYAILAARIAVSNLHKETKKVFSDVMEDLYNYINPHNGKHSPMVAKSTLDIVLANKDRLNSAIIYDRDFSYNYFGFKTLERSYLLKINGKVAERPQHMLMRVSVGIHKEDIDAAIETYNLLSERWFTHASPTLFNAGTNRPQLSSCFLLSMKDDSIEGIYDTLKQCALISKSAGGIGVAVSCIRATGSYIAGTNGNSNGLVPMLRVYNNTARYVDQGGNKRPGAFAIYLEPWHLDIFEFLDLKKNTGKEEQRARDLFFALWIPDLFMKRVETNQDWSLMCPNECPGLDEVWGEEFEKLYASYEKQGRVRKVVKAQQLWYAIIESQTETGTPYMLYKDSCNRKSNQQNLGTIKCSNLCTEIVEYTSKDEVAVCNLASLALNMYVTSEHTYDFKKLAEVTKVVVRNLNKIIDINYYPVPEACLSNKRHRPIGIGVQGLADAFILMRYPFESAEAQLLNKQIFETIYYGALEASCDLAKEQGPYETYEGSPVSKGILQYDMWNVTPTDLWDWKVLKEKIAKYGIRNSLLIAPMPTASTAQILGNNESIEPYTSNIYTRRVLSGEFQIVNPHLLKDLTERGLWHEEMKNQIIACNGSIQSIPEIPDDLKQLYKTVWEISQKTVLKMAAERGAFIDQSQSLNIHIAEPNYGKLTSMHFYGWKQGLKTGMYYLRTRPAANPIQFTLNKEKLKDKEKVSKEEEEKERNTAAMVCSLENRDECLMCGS
pIC50: −log10 of the molar value.
Exercise: state measured pIC50 for each of the compounds provided.

These recorded examples may help you get a feel for the data.
>  <COMPOUND>
Cc1ccc(F)c([C@@H](C)[C@H](NS(=O)(=O)N2CCC3(CC2)CC(F)(F)C3)c2n[nH]c(=O)o2)c1C

>  <pIC50>
6.00 to 7.00

$$$$
>  <COMPOUND>
COCC1CCCN(S(=O)(=O)N[C@H](c2n[nH]c(=O)o2)[C@H](C)c2c(F)ccc(C)c2C)C1 (stereo partly shown)

>  <pIC50>
5.00 to 6.00

$$$$
>  <COMPOUND>
Cc1ccc(F)c(C(C)[C@H](NS(=O)(=O)N2CCC(Cl)(C#N)CC2)c2n[nH]c(=O)o2)c1C (stereo partly shown)

>  <pIC50>
6.00 to 7.00

$$$$

Then there is this compound:
Data request: Name the recorded pIC50 for Cc1ccc(F)c([C@H](C)[C@H](NS(=O)(=O)N2CCCCC2CC(N)=O)c2n[nH]c(=O)o2)c1C (stereo partly shown) .
Data returned: 5.00 to 6.00

====

# TARGET DESC: UniProt P23921
# Sequence (P23921 1-792): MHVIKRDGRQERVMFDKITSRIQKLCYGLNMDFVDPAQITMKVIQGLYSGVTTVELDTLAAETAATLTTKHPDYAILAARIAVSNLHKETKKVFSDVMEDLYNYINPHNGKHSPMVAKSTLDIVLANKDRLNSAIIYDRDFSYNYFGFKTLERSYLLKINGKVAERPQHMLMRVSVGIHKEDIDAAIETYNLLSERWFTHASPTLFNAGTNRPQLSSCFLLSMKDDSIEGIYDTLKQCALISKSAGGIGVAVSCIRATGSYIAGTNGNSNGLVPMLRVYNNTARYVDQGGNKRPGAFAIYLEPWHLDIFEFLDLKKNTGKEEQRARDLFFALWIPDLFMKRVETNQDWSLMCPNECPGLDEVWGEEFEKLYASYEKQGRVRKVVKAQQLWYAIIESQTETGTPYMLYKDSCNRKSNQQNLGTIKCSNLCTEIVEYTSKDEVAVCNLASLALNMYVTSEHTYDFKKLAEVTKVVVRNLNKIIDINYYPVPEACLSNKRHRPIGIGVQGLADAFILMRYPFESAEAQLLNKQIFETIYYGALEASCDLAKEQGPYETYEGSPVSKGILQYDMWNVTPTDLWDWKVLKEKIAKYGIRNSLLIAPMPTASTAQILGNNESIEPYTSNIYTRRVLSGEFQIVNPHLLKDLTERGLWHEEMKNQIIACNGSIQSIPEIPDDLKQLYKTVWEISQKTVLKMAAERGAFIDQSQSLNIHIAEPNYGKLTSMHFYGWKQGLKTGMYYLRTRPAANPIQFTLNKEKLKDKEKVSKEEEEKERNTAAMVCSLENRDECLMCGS
OBSERVED PROPERTY: IC50

>  <MOLECULE>
Cc1ccc(F)c(C(C)[C@H](NS(=O)(=O)N2CCCC(C(C)C)C2)c2n[nH]c(=O)o2)c1C (stereo partly shown)

>  <TARGET DESC>
UniProt P23921

>  <IC50>
100 to 1000 nM

$$$$

// for each molecule in input: emit IC50
1. COCC1CCN(S(=O)(=O)N[C@H](c2n[nH]c(=O)o2)[C@H](C)c2c(F)ccc(C)c2C)CC1
2. Cc1ccc(F)c(C(C)[C@H](NS(=O)(=O)N2CCCC(N(C)C)C2)c2n[nH]c(=O)o2)c1C (stereo partly shown)
3. Cc1ccc(F)c([C@H](C)[C@H](NS(=O)(=O)N2CCCC(C(C)O)C2)c2n[nH]c(=O)o2)c1C (mixture of isomers)
4. Cc1ccc(F)c([C@@H](C)[C@H](NS(=O)(=O)N2CCC(C)CC2C)c2n[nH]c(=O)o2)c1C (stereo partly shown)

Data returned:
["100 to 1000 nM", "10000 to 100000 nM", "10000 to 100000 nM", "1000 to 10000 nM"]
